Test system: MCF7 breast
Assay: NCI-60 one-dose screen, 48 h
Details: 10 µM unless noted
Procedure: Growth inhibition of the MCF7 human tumor cell line is measured as a screen for anti-cancer activity. Cells are grown in 96 well plates and exposed to the test compound for 48 hours. Compounds are tested at a single concentration, which is 10^-5 M for most compounds. The reported endpoint is percent growth (GI% or GIPRCNT), where numbers from 0 - 100% represent growth inhibition, and numbers from -100% - 0 represent cell death. For example, a value of 40 represents 60% growth inhibition. […]
This is part of a sample that, as a whole, favours compounds with a hit. Of some 83,000 tested, about 20% had one in any assay. Calls of active or inactive are those of the source. Rule for the calls: active = growth percent below 10; inactive = the rest.
Answer with one of the outcomes given here: active, inactive

Example entries begin here.
>>> class_assignment("COP(=O)(OC)C(O)c1ccc(Cl)cc1 (centres undefined)")
"inactive"
>>> class_assignment("COc1ccc(-n2c(C)nc3cc(OC)c(OC)cc3c2=O)cc1OC")
"inactive"
>>> class_assignment("COc1cc2ncnc(Nc3ccc(F)c(Cl)c3)c2cc1OCC(=O)N1CCN(C)CC1")
"inactive"
>>> class_assignment("CC1=C(O)[C@@](C)(CCCCC[C@H](C)CCCCc2ccc(O)cc2)OOC1=O")
"inactive"
>>> class_assignment("O=C(Nc1ccc([As]=[As]c2ccc(NC(=O)c3ccccc3)cc2)cc1)c1ccccc1 (centres undefined)")
"active"
>>> class_assignment("O=C(O)CNC(=O)C(Cl)(Cl)Cl")
"inactive"

Given CCCCN(CCCC)P(=O)(Oc1ccccc1)Oc1ccccc1 , state the outcome it received in this test.
inactive

Entry CC(=O)Nc1ccc(NC(=O)c2ccc([As](O)O)cc2)cc1 please
inactive

Entry CCCCNC(c1ccc(Cl)cc1)C(O)c1ccc(Cl)cc1 (centres undefined) please
active
